biological target: PDE7 (Homo sapiens)
Sequence (Q13946 whole entry): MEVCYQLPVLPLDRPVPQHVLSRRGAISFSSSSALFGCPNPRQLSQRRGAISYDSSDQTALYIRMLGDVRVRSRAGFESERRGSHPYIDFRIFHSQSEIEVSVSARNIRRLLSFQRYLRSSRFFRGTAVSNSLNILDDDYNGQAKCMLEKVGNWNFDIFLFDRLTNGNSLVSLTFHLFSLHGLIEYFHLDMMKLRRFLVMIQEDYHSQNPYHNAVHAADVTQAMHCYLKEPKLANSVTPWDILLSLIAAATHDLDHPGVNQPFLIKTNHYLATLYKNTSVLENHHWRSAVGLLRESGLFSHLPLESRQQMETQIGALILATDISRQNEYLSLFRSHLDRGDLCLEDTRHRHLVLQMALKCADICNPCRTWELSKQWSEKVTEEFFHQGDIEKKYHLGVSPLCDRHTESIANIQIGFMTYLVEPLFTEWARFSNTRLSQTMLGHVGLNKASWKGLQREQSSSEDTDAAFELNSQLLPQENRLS
Measured Endpoint: IC50

>>> experimental_result("CCOc1cc([C@@H](CS(C)(=O)=O)N2C(=O)c3cccc(NC(C)=O)c3C2=O)ccc1OC")
"20.5 µM"
